Biological target: human adenosine receptor A2A (hADORA2A-HEK293 cells) (Homo sapiens)
Sequence (P29274 whole entry): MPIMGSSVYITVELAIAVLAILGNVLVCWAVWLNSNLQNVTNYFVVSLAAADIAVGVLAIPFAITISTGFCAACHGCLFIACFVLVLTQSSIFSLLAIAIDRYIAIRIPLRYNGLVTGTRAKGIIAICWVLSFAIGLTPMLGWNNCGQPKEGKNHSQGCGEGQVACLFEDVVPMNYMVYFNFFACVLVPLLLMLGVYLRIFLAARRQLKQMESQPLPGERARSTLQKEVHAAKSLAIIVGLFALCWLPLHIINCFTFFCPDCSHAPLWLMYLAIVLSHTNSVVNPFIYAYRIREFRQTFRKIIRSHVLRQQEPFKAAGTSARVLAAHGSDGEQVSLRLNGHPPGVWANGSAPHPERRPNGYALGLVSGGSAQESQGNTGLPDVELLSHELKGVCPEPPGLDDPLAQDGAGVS
Assay: cAMP test of A2A adenosine receptor
Settings: LANCE Ultra cAMP kit
Quantity name: EC50 (nM)

Mol	Quantity name	Data value
Nc1nc(-c2ccc(NC(=O)Nc3ccc(CO)cc3)cc2)nc2c1ncn2[C@@H]1O[C@H](CO)[C@@H](O)[C@H]1O	EC50	228

###

In what follows, each item is paired with its Ki for (human) A2A adenosine receptor (Homo sapiens, UniProt P29274).

Compound	Ki, nM
Nc1nc(-c2ccc(NC(=O)Nc3ccc(CO)cc3)cc2)nc2c1ncn2[C@@H]1O[C@H](CO)[C@@H](O)[C@H]1O [Compound 2]	16.4
Nc1nc(-c2ccc(NC(=O)Nc3cccnc3)cc2)nc2c1ncn2[C@@H]1O[C@H](CO)[C@@H](O)[C@H]1O [Compound 1]	778

###

pIC50: −log10 of the molar value.
In what follows, each item is paired with its pIC50 for (human) A2A adenosine receptor (Homo sapiens, UniProt P29274).
Quantity name: pIC50

Mol	Experimental system	Quantity name	Data value
Nc1nc(-c2ccc(NC(=O)NC3CC3)cc2)nc2c1ncn2[C@@H]1O[C@H](CO)[C@@H](O)[C@H]1O	(human) A2A adenosine receptor (Homo sapiens, UniProt P29274)	pIC50	7.47
Nc1nc(-c2ccc(NC(=O)Nc3cccnc3)cc2)nc2c1ncn2[C@@H]1O[C@H](CO)[C@@H](O)[C@H]1O	(human) A2A adenosine receptor (Homo sapiens, UniProt P29274)	pIC50	5.78

Where do the numbers come from? From patent US20220332750A1.
